- test target: full length N-terminally FLAG-tagged PARP1 (Homo sapiens)
- Sequence (P09874 whole entry): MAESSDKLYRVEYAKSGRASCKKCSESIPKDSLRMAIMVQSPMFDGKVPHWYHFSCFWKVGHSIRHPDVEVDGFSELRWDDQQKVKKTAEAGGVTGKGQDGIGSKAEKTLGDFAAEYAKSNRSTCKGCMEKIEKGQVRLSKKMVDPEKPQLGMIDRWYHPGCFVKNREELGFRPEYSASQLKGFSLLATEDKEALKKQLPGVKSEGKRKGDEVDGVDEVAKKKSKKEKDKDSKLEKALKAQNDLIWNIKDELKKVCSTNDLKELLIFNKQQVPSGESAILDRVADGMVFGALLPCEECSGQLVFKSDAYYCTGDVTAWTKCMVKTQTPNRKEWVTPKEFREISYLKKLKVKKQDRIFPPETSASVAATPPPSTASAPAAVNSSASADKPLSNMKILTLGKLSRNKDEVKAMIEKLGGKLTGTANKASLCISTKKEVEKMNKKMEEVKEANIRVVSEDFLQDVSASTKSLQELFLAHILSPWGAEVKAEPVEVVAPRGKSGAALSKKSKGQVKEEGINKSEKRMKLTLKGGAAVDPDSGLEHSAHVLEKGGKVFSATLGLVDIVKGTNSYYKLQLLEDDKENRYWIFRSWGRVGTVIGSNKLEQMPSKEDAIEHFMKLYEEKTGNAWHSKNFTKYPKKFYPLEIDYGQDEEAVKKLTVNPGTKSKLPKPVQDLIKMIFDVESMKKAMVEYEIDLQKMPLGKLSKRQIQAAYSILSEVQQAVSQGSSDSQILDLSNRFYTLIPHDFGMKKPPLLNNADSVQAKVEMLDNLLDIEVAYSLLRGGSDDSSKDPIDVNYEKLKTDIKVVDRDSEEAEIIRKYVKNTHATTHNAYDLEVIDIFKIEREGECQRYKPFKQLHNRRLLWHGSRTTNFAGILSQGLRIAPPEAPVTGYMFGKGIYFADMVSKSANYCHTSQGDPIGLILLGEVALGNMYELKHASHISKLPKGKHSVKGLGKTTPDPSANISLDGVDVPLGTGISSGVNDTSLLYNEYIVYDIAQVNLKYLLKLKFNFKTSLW
- protocol details: PARP1 biochemical DELFIA assay (auto-PARylation)
- Design: recombinant full length human N-terminally FLAG-tagged PARP1
- recorded conditions: binned IC50, biochemical auto-PARylation assay
measurement label: IC50

IC50 measured on CNC(=O)c1ccc(N2CCC(N3CCC(c4cc5ncc(F)cc5c(=O)[nH]4)C3)CC2)c(F)n1 (racemic) [Compound 324rac] = < 10 nM

IC50 measured on CNC(=O)c1csc(N2CCC(N3CCC(c4cc5ccccc5c(=O)[nH]4)C3)CC2)n1 (single isomer, unassigned) [Compound 274a] = 100 to 1000 nM

IC50 measured on CNC(=O)c1ccc(N2CCC(N3CCC(c4ccc(CCOC)c(=O)[nH]4)C3)CC2)cn1 (single isomer, unassigned) [Compound 240a] = 10 to 100 nM

IC50 measured on CNC(=O)c1ccc(N2CCC(N3CC4(c5nc6ccccc6c(=O)[nH]5)CC3(CO)C4)CC2)cn1 = < 10 nM

IC50 measured on CCc1cnc(C23CC(C2)N(C2CCN(c4ccc(C(=O)NC)nc4F)CC2)C3)[nH]c1=O = < 10 nM

IC50 measured on CNC(=O)c1ccc(N2CCC(N3CCC(c4nc5c(C)scc5c(=O)[nH]4)C3)CC2)cn1 (single isomer, unassigned) [Compound 232a] = 10 to 100 nM

IC50 measured on CNC(=O)c1cnc(N2CCC(N3CCC(c4cc5ccccc5c(=O)[nH]4)C3)CC2)s1 (racemic) [Compound 320rac] = 100 to 1000 nM

IC50 measured on CCc1ccc(C2CCN(C3CCN(c4ccc(C(=O)NCC(F)(F)F)nc4F)CC3)C2)[nH]c1=O (single isomer, unassigned) [Compound 285b] = < 10 nM

IC50 measured on CNC(=O)c1ccc(N2CCC(N3CC4(c5nc6ccc(F)cc6c(=O)[nH]5)CC3C4)CC2)c(F)n1 = < 10 nM

IC50 measured on CNC(=O)c1ccc(N2CCC(N3CCC(c4cc5cccc(F)c5c(=O)[nH]4)C3)CC2)c(F)c1 (single isomer, unassigned) [Compound 371b] = 10 to 100 nM

IC50 measured on CNC(=O)c1ccc(N2CCC(N3CC4(c5nc6ccncc6c(=O)[nH]5)CC3C4)CC2)cn1 = < 10 nM

IC50 measured on CNC(=O)c1ccc(N2CCC(N3CCC(c4[nH]c(=O)c5cc(F)ccc5c4F)C3)CC2)cn1 (single isomer, unassigned) [Compound 401a] = < 10 nM

IC50 measured on CNC(=O)c1ccc(N2CCC(N3CCC(c4[nH]c(=O)c5cc(F)ccc5c4F)C3)CC2)cn1 (single isomer, unassigned) [Compound 370a] = < 10 nM

---

For each record, write down the corresponding pIC50.
- test target: full length N-terminally FLAG-tagged PARP1 (Homo sapiens)
- protocol details: PARP1 biochemical DELFIA assay (auto-PARylation)
- Design: recombinant full length human N-terminally FLAG-tagged PARP1
- recorded conditions: binned IC50, PARP1 biochemical DELFIA assay
pIC50: −log10 of the molar value.

pIC50 measured on N#Cc1ccc(N2CCC(N3CCC(c4nc5ccccc5c(=O)[nH]4)C3)CC2)cn1 (single isomer, unassigned) [Compound 69b] = 7.00 to 8.00

pIC50 measured on CCc1ccc(C2CCN(C3CCN(c4ccc(C(=O)NC)nn4)CC3)C2)[nH]c1=O (single isomer, unassigned) [Compound 210b] = > 8.00

pIC50 measured on NC(=O)c1ccc(N2CCC(N3CCCC(c4nc5ccccc5c(=O)[nH]4)C3)CC2)cn1 (single isomer, unassigned) [Compound 109a] = 7.00 to 8.00

pIC50 measured on CNC(=O)c1ccc(N2CCC(N3CCC(c4cc5ncccc5c(=O)[nH]4)C3)CC2)cn1 (single isomer, unassigned) [Compound 218b] = > 8.00

pIC50 measured on CNC(=O)c1ccc(N2CCC(N3CCC(c4ccc(Cl)c(=O)[nH]4)C3)CC2)cn1 (single isomer, unassigned) [Compound 201b] = > 8.00

pIC50 measured on CNC(=O)c1ccc(N2CCC(N3CCCC(Cc4nc5ccccc5c(=O)[nH]4)C3)CC2)cn1 (single isomer, unassigned) [Compound 57a] = > 8.00

---

- test target: full length N-terminally FLAG-tagged PARP1 (Homo sapiens)
- protocol details: PARP1 biochemical DELFIA assay (auto-PARylation)
- Set-up: recombinant full length human N-terminally FLAG-tagged PARP1
- recorded conditions: binned IC50, biochemical auto-PARylation assay
measurement label: IC50

Item: CNC(=O)c1ccc(N2CCC(N3CCC(c4nc5sc(C)c(C)c5c(=O)[nH]4)C3)CC2)cn1 (single isomer, unassigned) [Compound 221b] | System: full length N-terminally FLAG-tagged PARP1 (Homo sapiens) | IC50: < 10 nM

Item: CCc1ccc(C2CCN(C3CCN(c4ccc(C(=O)NC5CC5)nc4)CC3)C2)[nH]c1=O (single isomer, unassigned) [Compound 338a] | System: full length N-terminally FLAG-tagged PARP1 (Homo sapiens) | IC50: < 10 nM

Item: CC(=O)Nc1ccc(N2CCC(N3CCC(c4cc5ccccc5c(=O)[nH]4)C3)CC2)cn1 (single isomer, unassigned) [Compound 306b] | System: full length N-terminally FLAG-tagged PARP1 (Homo sapiens) | IC50: < 10 nM

Item: CCc1ccc(C2CCN(C3CCN(c4ccc(C(=O)NC)cc4)CC3)C2)[nH]c1=O (single isomer, unassigned) [Compound 355b] | System: full length N-terminally FLAG-tagged PARP1 (Homo sapiens) | IC50: < 10 nM

Item: CNC(=O)c1cc(F)c(N2CCC(N3CCC(c4cc5ccc(F)cc5c(=O)[nH]4)C3)CC2)cn1 (racemic) | System: full length N-terminally FLAG-tagged PARP1 (Homo sapiens) | IC50: < 10 nM

Item: CC(=O)Nc1ccc(N2CCC(N3CCC(c4nc5ccccc5c(=O)[nH]4)C3)CC2)cn1 (single isomer, unassigned) [Compound 220a] | System: full length N-terminally FLAG-tagged PARP1 (Homo sapiens) | IC50: 100 to 1000 nM

Item: CNC(=O)c1ccc(N2CCC(N3CCC(c4[nH]c(=O)c5cc(F)ccc5c4F)C3)CC2)cn1 (single isomer, unassigned) [Compound 370b] | System: full length N-terminally FLAG-tagged PARP1 (Homo sapiens) | IC50: < 10 nM

Item: CNC(=O)c1ccc(N2CCC(N3CCC(c4cc5c(F)cncc5c(=O)[nH]4)C3)CC2)cn1 (single isomer, unassigned) [Compound 331a] | System: full length N-terminally FLAG-tagged PARP1 (Homo sapiens) | IC50: < 10 nM

Item: CNC(=O)c1ccc(N2CCC(N3CCC(c4cc5c(c(=O)[nH]4)CCC(=O)N5)C3)CC2)cn1 (single isomer, unassigned) [Compound 309b] | System: full length N-terminally FLAG-tagged PARP1 (Homo sapiens) | IC50: 10 to 100 nM

Item: CNC(=O)c1ccc(N2CCC(N3CCC(c4nc5c(c(=O)[nH]4)CCC5)C3)CC2)cn1 (single isomer, unassigned) [Compound 283b] | System: full length N-terminally FLAG-tagged PARP1 (Homo sapiens) | IC50: < 10 nM

Item: CCc1ccc(C2CCN(C3CCN(c4ccc(C#N)nc4)CC3)C2)[nH]c1=O (single isomer, unassigned) [Compound 326a] | System: full length N-terminally FLAG-tagged PARP1 (Homo sapiens) | IC50: 100 to 1000 nM

Item: CNC(=O)c1ncc(N2CCC(N3CCC(c4cc5ccc(F)cc5c(=O)[nH]4)C3)CC2)c(Cl)n1 (racemic) | System: full length N-terminally FLAG-tagged PARP1 (Homo sapiens) | IC50: < 10 nM

Item: CNC(=O)c1ccc(N2CCC(N3CCC(c4cc5c(F)ccc(F)c5c(=O)[nH]4)C3)CC2)c(F)n1 (racemic) [Compound 268rac] | System: full length N-terminally FLAG-tagged PARP1 (Homo sapiens) | IC50: < 10 nM

Item: CNC(=O)c1ncc(N2CCC(N3CCC(c4cc5ccc(F)cc5c(=O)[nH]4)C3)CC2)cc1F (single isomer, unassigned) [Compound 395b] | System: full length N-terminally FLAG-tagged PARP1 (Homo sapiens) | IC50: < 10 nM

Item: CNC(=O)c1ncc(N2CCC(N3CCC(c4cc5cccc(F)c5c(=O)[nH]4)C3)CC2)c(C(F)(F)F)n1 (single isomer, unassigned) [Compound 277a] | System: full length N-terminally FLAG-tagged PARP1 (Homo sapiens) | IC50: < 10 nM

Item: CS(=O)(=O)NC(=O)c1ccc(N2CCC(N3CCC(c4cc5ccccc5c(=O)[nH]4)C3)CC2)cc1 (single isomer, unassigned) [Compound 342a] | System: full length N-terminally FLAG-tagged PARP1 (Homo sapiens) | IC50: 100 to 1000 nM

Item: CNC(=O)c1ccc(N2CCC(N3CCC(c4cc5c(C(F)(F)F)nn(C)c5c(=O)[nH]4)C3)CC2)cn1 (racemic) | System: full length N-terminally FLAG-tagged PARP1 (Homo sapiens) | IC50: 100 to 1000 nM

Item: Cc1n[nH]c(-c2ccc(N3CCC(N4CCC(c5nc6ccccc6c(=O)[nH]5)C4)CC3)cn2)n1 (racemic) | System: full length N-terminally FLAG-tagged PARP1 (Homo sapiens) | IC50: < 10 nM

Item: N#Cc1ccc(N2CCC(N3CCC(c4cc5cccc(F)c5c(=O)[nH]4)C3)CC2)c(F)c1 (single isomer, unassigned) [Compound 356b] | System: full length N-terminally FLAG-tagged PARP1 (Homo sapiens) | IC50: 100 to 1000 nM

Item: N#Cc1nc(C(=O)NC2CC2)ccc1N1CCC(N2CCC(c3cc4cccc(F)c4c(=O)[nH]3)C2)CC1 (single isomer, unassigned) [Compound 410b] | System: full length N-terminally FLAG-tagged PARP1 (Homo sapiens) | IC50: < 10 nM

Item: CNC(=O)c1ccc(N2CCC(N3CCC(c4nc5ccc(F)c(F)c5c(=O)[nH]4)C3)CC2)cn1 (single isomer, unassigned) [Compound 222b] | System: full length N-terminally FLAG-tagged PARP1 (Homo sapiens) | IC50: < 10 nM

Item: CNC(=O)c1ccc(N2CCC(N3CCC(c4cc5ncc(F)cc5c(=O)[nH]4)C3)CC2)cn1 (racemic) [Compound 315rac] | System: full length N-terminally FLAG-tagged PARP1 (Homo sapiens) | IC50: < 10 nM

Item: CC(=O)NC(=O)c1ccc(N2CCC(N3CCC(c4cc5ccccc5c(=O)[nH]4)C3)CC2)cn1 (single isomer, unassigned) [Compound 333b] | System: full length N-terminally FLAG-tagged PARP1 (Homo sapiens) | IC50: 10 to 100 nM

Item: CNC(=O)c1ccc(N2CCC(N3CCC(c4cc5ccccc5c(=O)[nH]4)C3)CC2)s1 (racemic) | System: full length N-terminally FLAG-tagged PARP1 (Homo sapiens) | IC50: 1000 to 10000 nM

Item: CCc1ccc(C2CCN(C3CCN(c4ccc(C(=O)NC5CC5)nc4)CC3)C2)[nH]c1=O (single isomer, unassigned) [Compound 338b] | System: full length N-terminally FLAG-tagged PARP1 (Homo sapiens) | IC50: 10 to 100 nM
